# measured.target: UniProt:P04629
# Sequence (P04629 whole entry): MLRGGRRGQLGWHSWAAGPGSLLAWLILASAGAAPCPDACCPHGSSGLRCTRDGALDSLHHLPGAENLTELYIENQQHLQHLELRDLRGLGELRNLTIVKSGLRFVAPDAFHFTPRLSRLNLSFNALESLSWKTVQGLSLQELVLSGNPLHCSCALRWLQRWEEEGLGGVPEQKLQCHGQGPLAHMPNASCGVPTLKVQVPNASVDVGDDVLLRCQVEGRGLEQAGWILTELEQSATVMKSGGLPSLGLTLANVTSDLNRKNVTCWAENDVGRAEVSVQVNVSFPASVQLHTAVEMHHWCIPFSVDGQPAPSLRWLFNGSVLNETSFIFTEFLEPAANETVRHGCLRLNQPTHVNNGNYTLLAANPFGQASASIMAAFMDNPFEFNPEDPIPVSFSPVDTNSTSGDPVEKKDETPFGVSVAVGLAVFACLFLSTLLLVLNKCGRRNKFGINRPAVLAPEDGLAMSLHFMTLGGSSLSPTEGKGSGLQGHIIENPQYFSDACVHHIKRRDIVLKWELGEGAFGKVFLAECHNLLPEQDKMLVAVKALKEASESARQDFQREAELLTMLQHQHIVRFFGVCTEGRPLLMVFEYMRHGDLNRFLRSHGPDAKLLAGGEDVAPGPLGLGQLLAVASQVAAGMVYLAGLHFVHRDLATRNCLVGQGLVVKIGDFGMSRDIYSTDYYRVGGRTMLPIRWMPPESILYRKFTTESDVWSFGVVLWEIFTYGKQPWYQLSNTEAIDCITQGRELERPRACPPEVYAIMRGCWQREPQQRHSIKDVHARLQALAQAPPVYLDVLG
# method.description: Inhibition of TRKA (unknown origin) using Kinase substrate 22 pre-incubated with compound for 10 mins followed by substrate and ATP addition measured after 30 mins by mobility shift assay based caliper reader analysis
Measured pIC50 values are reported for all entries that follow.
Recall that pIC50 is obtained by taking minus log10 of the concentration measured in molar.

These solved cases illustrate the format of a correct answer.
>>> readout_value("Cc1ncc(-c2ccccc2)c(NC(=O)NC2c3ccccc3-c3ccccc32)n1")
7.00
>>> readout_value("Cn1ccc(-c2cc(C(=O)Nc3cc(C(=O)O)cnc3-c3ccccc3)ccc2C(F)(F)F)n1")
7.65
>>> readout_value("Cn1ccc(-c2cc(C(=O)Nc3cc(O)cnc3-c3ccccc3)ccc2C(F)(F)F)n1")
7.15
>>> readout_value("Cn1ccc(-c2cc(C(=O)Nc3cc(OP(=O)(O)O)cnc3-c3ccccc3)ccc2C(F)(F)F)n1")
6.10
>>> readout_value("CC(=O)NCc1ncc(NC(=O)c2ccc(C(F)(F)F)c(-c3cn(C)cn3)c2)c(-c2ccccc2)n1")
8.40

API: the following record is the query input.
Could you tell me which pIC50 is on file for CCOc1nn(-c2ccccc2)c(NC(=O)N[C@H]2CN(CCOC)C[C@@H]2c2ccc(F)c(F)c2)c1C ?
8.57
